Target: Stromelysin-1 (Homo sapiens)
Sequence (P08254 whole entry): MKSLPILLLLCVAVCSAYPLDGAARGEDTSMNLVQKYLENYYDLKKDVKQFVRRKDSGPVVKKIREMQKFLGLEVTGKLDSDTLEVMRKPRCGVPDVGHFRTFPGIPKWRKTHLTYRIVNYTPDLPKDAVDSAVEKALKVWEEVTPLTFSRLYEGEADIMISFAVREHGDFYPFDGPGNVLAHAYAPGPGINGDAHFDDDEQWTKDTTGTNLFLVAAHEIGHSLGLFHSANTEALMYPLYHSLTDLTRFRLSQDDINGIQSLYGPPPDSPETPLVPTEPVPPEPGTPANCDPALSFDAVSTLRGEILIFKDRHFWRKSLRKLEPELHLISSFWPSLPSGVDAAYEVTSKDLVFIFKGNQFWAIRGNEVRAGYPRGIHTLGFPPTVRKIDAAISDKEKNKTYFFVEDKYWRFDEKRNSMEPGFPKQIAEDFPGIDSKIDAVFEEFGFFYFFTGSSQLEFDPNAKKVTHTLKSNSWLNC
Assay Text: In vitro inhibition of recombinant human matrix metalloprotease-3 (MMP-3)
Quantity Name: IC50
Form entry: enter the amount, then its unit.

Worked examples follow.
> print(dat)
                                   molecule  measured.result
1  CC(C)[C@@H](NS(=O)(=O)c1ccc(-c2ccc(Br)cc2)cc1)C(=O)NO             5 nM
2  CC(C)[C@H](NS(=O)(=O)c1ccc(-c2cccc(F)c2)cc1)C(=O)O            17 nM
3  CC(C)[C@H](NS(=O)(=O)c1ccc(-c2ccccc2)cc1)C(=O)O            38 nM
4  O=C(O)[C@H](Cc1ccccc1)NS(=O)(=O)c1ccc(-c2ccc(Br)cc2)cc1            20 nM
5  O=C(O)C(CCSCc1ccccc1)NS(=O)(=O)c1ccc(-c2ccc(Br)cc2)cc1 (centres undefined)            22 nM

Please go through the list and note IC50 for each molecule.
1. CC(C)[C@H](NS(=O)(=O)c1ccc(-c2ccc(Cl)cc2)cc1)C(=O)O
2. CC(C)[C@H](NS(=O)(=O)c1ccc(-c2ccc(C(F)(F)F)cc2)cc1)C(=O)O
3. O=C(O)C(CCS(=O)(=O)Cc1ccccc1)NS(=O)(=O)c1ccc(-c2ccc(Br)cc2)cc1 (centres undefined)
4. O=C(CCc1ccccc1)NCCC[C@H](NS(=O)(=O)c1ccc(-c2ccc(Br)cc2)cc1)C(=O)O

1: 9 nM; 2: 9 nM; 3: 7 nM; 4: 21 nM

###

Assay Text: Concentration in rat plasma 24 hours after single 5 mg/kg oral cassette gavage dose
Type: ADME, organism-based
Parameters: dose 5 mg/kg, route oral
Applied Conditions: read-out: C24
Quantity Name: concentration at 24 h (ng/mL)
One number for each entry, in ng/mL.

Below: 3 compounds and their reported concentration at 24 h.
> print(dat)
                                   compound          quantity.name  unit.symbol  measured.result
1  CC(C)[C@H](NS(=O)(=O)c1ccc(-c2ccc(Br)cc2F)cc1)C(=O)O  concentration at 24 h        ng/mL            21300
2  O=C(O)[C@H](Cc1ccccc1)NS(=O)(=O)c1ccc(-c2ccc(Br)cc2)cc1  concentration at 24 h        ng/mL             6280
3  CC(C)[C@H](NS(=O)(=O)c1ccc(-c2ccccc2)cc1)C(=O)O  concentration at 24 h        ng/mL               39

Please go through the list and note concentration at 24 h for each compound.
1. CC(C)[C@H](NS(=O)(=O)c1ccc(-c2ccc(Cl)cc2)cc1)C(=O)O
2. CC(C)[C@H](NS(=O)(=O)c1ccc(-c2ccc(C#N)cc2)cc1)C(=O)O
3. C[C@H](NS(=O)(=O)c1ccc(-c2ccc(Br)cc2)cc1)C(=O)O

[4020, 5480, 12900]

###

Target: UniProt P03956
Sequence (P03956 whole entry): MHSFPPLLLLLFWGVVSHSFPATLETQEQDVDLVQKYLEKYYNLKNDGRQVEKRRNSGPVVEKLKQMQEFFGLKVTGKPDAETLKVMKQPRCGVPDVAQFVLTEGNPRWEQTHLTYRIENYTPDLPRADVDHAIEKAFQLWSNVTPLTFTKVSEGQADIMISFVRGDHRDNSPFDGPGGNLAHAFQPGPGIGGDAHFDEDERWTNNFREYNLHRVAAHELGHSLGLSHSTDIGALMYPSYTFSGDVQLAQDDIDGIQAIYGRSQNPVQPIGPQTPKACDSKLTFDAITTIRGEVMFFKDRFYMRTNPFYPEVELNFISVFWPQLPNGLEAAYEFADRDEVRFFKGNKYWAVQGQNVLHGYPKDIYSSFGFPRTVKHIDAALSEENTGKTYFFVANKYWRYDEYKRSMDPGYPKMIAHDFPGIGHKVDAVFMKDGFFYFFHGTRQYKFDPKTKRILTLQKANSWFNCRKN
Assay Text: In vitro inhibition of human recombinant matrix metalloprotease-1 (MMP-1)
Quantity Name: pIC50
Numbers only, as −log10 of the molar value.

The cases that follow already have their pIC50 on record.
> print(dat)
                           smiles.structure  quantity.name  measured.result
1  CC(C)[C@H](NS(=O)(=O)c1ccc(-c2ccc(C#N)cc2)cc1)C(=O)O          pIC50             4.74
2  CC(C)C[C@H](NS(=O)(=O)c1ccc(-c2ccc(Br)cc2)cc1)C(=O)O          pIC50             5.15

Could you tell me pIC50 for each of these compounds? They are listed below.
1. O=C(O)CNS(=O)(=O)c1ccc(-c2ccc(Br)cc2)cc1
2. O=C(NCCCC[C@H](NS(=O)(=O)c1ccc(-c2ccc(Br)cc2)cc1)C(=O)O)OCc1ccccc1
3. CC(C)[C@H](NS(=O)(=O)c1ccc(-c2ccc([N+](=O)[O-])cc2)cc1)C(=O)O

1: 4.30; 2: 4.40; 3: 4.92

###

Answer each item with its documented Tmax.
Assay Text: Time to maximal concentration (tmax) in rats following a single 5 mg/kg oral cassette gavage dose
Type: ADME, organism-based
Parameters: dose 5 mg/kg, route oral
Applied Conditions: rat, in vivo
Answers are plain numbers, in h.

These recorded examples may help you get a feel for the data.
> print(dat)
                                   compound  quantity.name  unit.symbol  measured.result
1  CC(C)[C@H](NS(=O)(=O)c1ccc(-c2ccc(F)cc2)cc1)C(=O)O           Tmax            h             2.75
2  CC(C)[C@H](NS(=O)(=O)c1ccc(-c2ccc(Br)cc2F)cc1)C(=O)O           Tmax            h             1.88
3  CC(C)[C@@H](NS(=O)(=O)c1ccc(-c2ccc(C#N)cc2)cc1)C(=O)NO           Tmax            h                1
4  CC(C)[C@H](NS(=O)(=O)c1ccc(-c2ccc(Br)cc2)cc1)C(=O)O           Tmax            h                2
5  CC(C)C[C@H](NS(=O)(=O)c1ccc(-c2ccc(Br)cc2)cc1)C(=O)O           Tmax            h             2.33

Value sought for every listed compound: Tmax.
1. O=C(O)C(CCS(=O)(=O)Cc1ccccc1)NS(=O)(=O)c1ccc(-c2ccc(Br)cc2)cc1 (configuration not stated)
2. CC(C)[C@H](NS(=O)(=O)c1ccc(-c2ccc(Cl)cc2)cc1)C(=O)O

1. 1.67
2. 0.5

###

Assay Text: AUC in rats following a single 5 mg/kg oral cassette gavage dose
Format: ADME, organism-based
Parameters: dose 5 mg/kg, route oral
Applied Conditions: rat, plasma, read-out: AUC 0-tldc
Assignment: determine reported AUC for the given compounds.
One number for each entry, in µg·h/mL.

> print(dat)
                                   compound  measured.result
1  O=C(O)[C@H](Cc1ccccc1)NS(=O)(=O)c1ccc(-c2ccc(Br)cc2)cc1              310
2  O=C(O)CNS(=O)(=O)c1ccc(-c2ccc(Br)cc2)cc1              276
3  C[C@H](NS(=O)(=O)c1ccc(-c2ccc(Br)cc2)cc1)C(=O)O              584

I have 7 compounds here; please give me AUC for each one.
1. COc1ccc(-c2ccc(S(=O)(=O)N[C@H](C(=O)O)C(C)C)cc2)cc1
2. CC(C)[C@H](NS(=O)(=O)c1ccc(-c2ccc(Br)cc2)cc1)C(=O)O
3. CC(C)[C@H](NS(=O)(=O)c1ccc(-c2ccc(F)cc2)cc1)C(=O)O
4. CC(C)C[C@H](NS(=O)(=O)c1ccc(-c2ccc(Br)cc2)cc1)C(=O)O
5. CC(C)[C@H](NS(=O)(=O)c1ccc(-c2ccc(Br)cc2F)cc1)C(=O)O
6. CC(C)[C@@H](NS(=O)(=O)c1ccc(-c2ccc(Br)cc2)cc1)C(=O)NO
7. CC(C)[C@H](NS(=O)(=O)c1ccc(-c2ccc(Cl)cc2)cc1)C(=O)O

1: 2.79; 2: 1400; 3: 670; 4: 578; 5: 1360; 6: 5.73; 7: 170

Batch request: AUC for each of the following compounds.
1. O=C(O)C(CCSCc1ccccc1)NS(=O)(=O)c1ccc(-c2ccc(Br)cc2)cc1 (configuration not stated)
2. CC(C)[C@@H](NS(=O)(=O)c1ccc(Oc2ccccc2)cc1)C(=O)NO

1. 119
2. 2.17

###

Assay Text: AUC in rats following a single 5 mg/kg oral cassette gavage dose
Assay type: ADME, organism-based
Parameters: dose 5 mg/kg, route oral
Applied Conditions: rat, plasma, read-out: AUC 0-tldc
// returns Condition not met unless AUC is strictly below 300 µg·h/mL, in which case Condition met

> print(dat)
                                   compound           category
1  O=C(O)C(CCS(=O)(=O)Cc1ccccc1)NS(=O)(=O)c1ccc(-c2ccc(Br)cc2)cc1 (centres undefined)      Condition met
2  CC(C)[C@H](NS(=O)(=O)c1ccc(-c2ccc([N+](=O)[O-])cc2)cc1)C(=O)O  Condition not met
3  CC(C)[C@H](NS(=O)(=O)c1ccc(-c2ccc(C#N)cc2)cc1)C(=O)O      Condition met
4  CC(C)[C@@H](NS(=O)(=O)c1ccc(-c2ccc(C#N)cc2)cc1)C(=O)NO      Condition met
5  CC(C)[C@@H](NS(=O)(=O)c1ccc(-c2ccc(Br)cc2)cc1)C(=O)O  Condition not met

For this compound, is AUC lower than 300 µg·h/mL? `CC(C)[C@H](NS(=O)(=O)c1ccc(-c2ccccc2)cc1)C(=O)O` Condition met

Here's an entry: `CC(C)[C@@H](NS(=O)(=O)c1ccc(-c2ccc(C#N)cc2)cc1)C(=O)O` . Is its AUC below 300 µg·h/mL? Condition met

Decide: AUC of `CC(C)[C@H](NS(=O)(=O)c1ccc(-c2ccc(C(F)(F)F)cc2)cc1)C(=O)O` strictly below 300 µg·h/mL? Condition not met

Decide: AUC of `Cc1ccc(-c2ccc(S(=O)(=O)N[C@H](C(=O)O)C(C)C)cc2)cc1` strictly below 300 µg·h/mL? Condition met
